Recorded values, source ChEMBL document CHEMBL3232730.

protocol: Antiproliferative activity against human PANC1 cells assessed as cell viability after 72 hrs by CCK8 assay
Assay type: functional, cell-based
experimental.conditions: PANC-1, 72 h
For each entry below, report its IC50 value.
One number for each entry, in nM.

Some entries whose results are on file:
// Input: Cc1cc(Nc2cc(N3CCN(C)CC3)nc(Nc3cccc(Cl)c3)n2)n[nH]1 . Output its IC50 only.
351

Please give measured IC50 of the following entry: COC(=O)c1ccc(Nc2nc(Nc3cc(C)[nH]n3)cc(N3CCOCC3)n2)cc1
1590

Give the measured IC50 for COC(=O)c1ccc(Nc2nc(Nc3cc(C)[nH]n3)cc(N3CCN(C)CC3)n2)cc1
1080

Give recorded IC50. Cc1cc(Nc2cc(N3CCN(C)CC3)nc(Nc3ccc(C(=O)OC(C)C)cc3)n2)n[nH]1
1320

Give reported IC50 value for Cc1cc(Nc2cc(N3CCOCC3)nc(Nc3ccc([N+](=O)[O-])cc3)n2)n[nH]1
580

Please give the documented IC50 of COc1cccc(Nc2nc(Nc3cc(C)[nH]n3)cc(N3CCN(C)CC3)n2)c1
693

Please indicate IC50 recorded for Cc1cc(Nc2cc(N3CCN(C)CC3)nc(Nc3ccc([N+](=O)[O-])cc3)n2)n[nH]1
442

Give the reported value of IC50 for this record: Cc1cc(Nc2cc(N3CCN(C)CC3)nc(Nc3ccc(Cl)cc3)n2)n[nH]1
455

# next compound below
Given COc1ccc(Nc2nc(Nc3cc(C)[nH]n3)cc(N3CCN(C)CC3)n2)cc1 , respond with its IC50.
1120

---

Assign pIC50 to each entry below.
Tested on: HL-60
protocol: Antiproliferative activity against human HL60 cells assessed as cell viability after 72 hrs by CCK8 assay
Type: functional, cell-based
experimental.conditions: Homo sapiens, HL-60, 72 h; read-out: IC50
One number for each entry, as −log10 of the molar value.

Solved entries (count: 4):
Please look at this compound and report its pIC50: Cc1cc(Nc2cc(N3CCN(C)CC3)nc(Nc3cccc(Cl)c3)n2)n[nH]1
6.88

Report pIC50, nothing else, for this compound: Cc1cc(Nc2cc(N3CCN(C)CC3)nc(Nc3ccc(C#N)cc3)n2)n[nH]1
7.66

Specify pIC50 for COC(=O)c1ccc(Nc2nc(Nc3cc(C)[nH]n3)cc(N3CCN(S(C)(=O)=O)CC3)n2)cc1 and stop.
6.22

Please supply the value of reported pIC50 for the item Cc1cc(Nc2cc(N3CCN(C)CC3)nc(Nc3ccc(C(=O)OC(C)C)cc3)n2)n[nH]1
6.74

// switching to the query compound
Return the recorded pIC50 value; entry: Cc1cc(Nc2cc(N3CCN(C)CC3)nc(Nc3cccc([N+](=O)[O-])c3)n2)n[nH]1
7.04

---

System: HeLa
protocol: Antiproliferative activity against human HeLa cells assessed as cell viability after 72 hrs by CCK8 assay
Type: functional, cell-based
experimental.conditions: Homo sapiens, HeLa, 72 h; read-out: IC50
IC50 less than 400 nM is t; IC50 greater than or equal to 400 nM is f.

These recorded examples may help you get a feel for the data.
Does this compound meet the criterion IC50 < 400 nM? COc1cccc(Nc2nc(Nc3cc(C)[nH]n3)cc(N3CCN(C)CC3)n2)c1
f

Identify whether the compound Cc1cc(Nc2cc(N3CCN(C)CC3)nc(Nc3cccc(Cl)c3)n2)n[nH]1 records IC50 below 400 nM.
f

New cases:
Is IC50 of Cc1cc(Nc2cc(N3CCN(C)CC3)nc(Nc3ccc([N+](=O)[O-])cc3)n2)n[nH]1 strictly below 400 nM?
t

---

protocol: Antiproliferative activity against human PANC1 cells assessed as cell viability after 72 hrs by CCK8 assay
Format: functional, cell-based
experimental.conditions: PANC-1, 72 h
Assignment: determine reported pIC50 for the given molecules.
Give bare numbers, as −log10 of the molar value.

Fill in pIC50 for record Cc1cc(Nc2cc(N3CCN(C)CC3)nc(Nc3ccc(C#N)cc3)n2)n[nH]1
6.36

Tell us which pIC50 value is on record for COC(=O)c1ccc(Nc2nc(Nc3cc(C)[nH]n3)cc(N3CCN(S(C)(=O)=O)CC3)n2)cc1
5.91

Tell me pIC50 reported for Cc1cc(Nc2cc(N3CCN(C)CC3)nc(Sc3ccc(NC(=O)C4CC4)cc3)n2)n[nH]1
5.38

Respond only with pIC50 recorded for Cc1cc(Nc2cc(N3CCN(C)CC3)nc(Nc3cccc([N+](=O)[O-])c3)n2)n[nH]1
6.34

Return value of pIC50 for input Cc1cc(Nc2cc(N3CCN(C)CC3)nc(Nc3ccc(S(N)(=O)=O)cc3)n2)n[nH]1 , no commentary.
5.06

Find the measured pIC50 of COC(=O)c1ccc(Nc2nc(Nc3cc(C)[nH]n3)cc(N3CCN(C)CC3)n2)cc1Cl and report it.
6.29

The record that follows has no pIC50 shown yet.
Write down pIC50 measured for item Cc1cc(Nc2cc(N3CCN(C)CC3)nc(Nc3ccc(C(=O)O)cc3)n2)n[nH]1
4.41

---

Test system: HL-60
protocol: Antiproliferative activity against human HL60 cells assessed as cell viability after 72 hrs by CCK8 assay
Type: functional, cell-based
experimental.conditions: Homo sapiens, HL-60, 72 h; read-out: IC50
pIC50: −log10 of the molar value.
Hi, to clarify the labels: yes covers pIC50 from 7 upward, no covers anything below 7.

Below are worked cases with known answers.
Threshold query (pIC50 >= 7) on COC(=O)c1ccc(Nc2nc(Nc3cc(C)[nH]n3)cc(N3CCOCC3)n2)cc1
no

Decide: pIC50 of COc1ccc(Nc2nc(Nc3cc(C)[nH]n3)cc(N3CCN(C)CC3)n2)cc1 >= 7?
no

State whether the measured pIC50 reaches 7, counting equality as reaching it, for Cc1cc(Nc2cc(N3CCN(C)CC3)nc(Nc3ccc(S(N)(=O)=O)cc3)n2)n[nH]1
no

Next, consider the following compound.
Please tell me: is the compound Cc1cc(Nc2cc(N3CCN(C)CC3)nc(Sc3ccc(NC(=O)C4CC4)cc3)n2)n[nH]1 at or over 7 in terms of pIC50?
yes

---

System: U-937
protocol: Antiproliferative activity against human U937 cells assessed as cell viability after 72 hrs by CCK8 assay
Assay type: functional, cell-based
experimental.conditions: Homo sapiens, U-937, 72 h; read-out: IC50
Answer each item with its documented pIC50.
One number for each entry, as −log10 of the molar value.

Below are worked cases with known answers.
Report measured pIC50; entry is COC(=O)c1ccc(Nc2nc(Nc3cc(C)[nH]n3)cc(N3CCN(S(C)(=O)=O)CC3)n2)cc1
6.63

Name the recorded pIC50 of the compound listed here: Cc1cc(Nc2cc(N3CCN(C)CC3)nc(Sc3ccc(NC(=O)C4CC4)cc3)n2)n[nH]1 [TOZASERTIB]
7.44

Using the record for COc1cccc(Nc2nc(Nc3cc(C)[nH]n3)cc(N3CCN(C)CC3)n2)c1 , state its measured pIC50.
6.90

Give a short answer stating reported pIC50 for Cc1cc(Nc2cc(N3CCOCC3)nc(Nc3ccc([N+](=O)[O-])cc3)n2)n[nH]1 .
6.68

Return reported pIC50. Input compound: Cc1cc(Nc2cc(N3CCN(C)CC3)nc(Nc3ccc([N+](=O)[O-])cc3)n2)n[nH]1
7.36

Give the reported pIC50 for this compound. Cc1cc(Nc2cc(N3CCN(C)CC3)nc(Nc3cccc(Cl)c3)n2)n[nH]1
7.66

For the compound Cc1cc(Nc2cc(N3CCN(C)CC3)nc(Nc3ccc(Cl)cc3)n2)n[nH]1 , report pIC50.
7.26

Determine its reported pIC50: COC(=O)c1ccc(Nc2nc(Nc3cc(C)[nH]n3)cc(N3CCN(C)CC3)n2)cc1Cl
7.26

More entries:
Report pIC50 for COc1ccc(Nc2nc(Nc3cc(C)[nH]n3)cc(N3CCN(C)CC3)n2)cc1
7.03

---

Test system: HeLa
protocol: Antiproliferative activity against human HeLa cells assessed as cell viability after 72 hrs by CCK8 assay
Format: functional, cell-based
experimental.conditions: Homo sapiens, HeLa, 72 h; read-out: IC50
pIC50: −log10 of the molar value.
T means recorded pIC50 is 6 or above; F means it is below 6.

Does COC(=O)c1ccc(Nc2nc(Nc3cc(C)[nH]n3)cc(N3CCN(S(C)(=O)=O)CC3)n2)cc1 have a reported pIC50 of at least 6?
F

Next:
Say whether Cc1cc(Nc2cc(N3CCN(C)CC3)nc(Nc3ccc(Cl)cc3)n2)n[nH]1 shows pIC50 of 6 or more.
T

---

Test system: HL-60
protocol: Antiproliferative activity against human HL60 cells assessed as cell viability after 72 hrs by CCK8 assay
Assay type: functional, cell-based
experimental.conditions: Homo sapiens, HL-60, 72 h; read-out: IC50
endpoint: log10(IC50) (log10 of the value in nM)
Please note: log10 values; quantity IC50; unit nM.

Sample answers from the record:
Name the recorded log10(IC50) of the item Cc1cc(Nc2cc(N3CCOCC3)nc(Nc3ccc([N+](=O)[O-])cc3)n2)n[nH]1 in your answer.
3.20

Let me know recorded log10(IC50) for COC(=O)c1ccc(Nc2nc(Nc3cc(C)[nH]n3)cc(N3CCN(C)CC3)n2)cc1Cl , thanks.
2.11

Retrieve log10(IC50) measured for COC(=O)c1ccc(Nc2nc(Nc3cc(C)[nH]n3)cc(N3CCN(C)CC3)n2)cc1 and print it.
2.31

Return the recorded log10(IC50) value; entry: COc1cccc(Nc2nc(Nc3cc(C)[nH]n3)cc(N3CCN(C)CC3)n2)c1
2.60

Consider the additional molecule presented here.
Given the molecule Cc1cc(Nc2cc(N3CCN(C)CC3)nc(Nc3ccc([N+](=O)[O-])cc3)n2)n[nH]1 , write its reported log10(IC50).
1.84
